- Test system: HCC-2998 colon
- test-summary: NCI tumour cell line growth inhibition, 48 h
# GI50 listing for each entry below
metric: GI50

molecule	tgt	metric	test-value
O=C([O][Sn]([O]C(=O)c1ccccn1)([c]1ccccc1)[c]1ccccc1)c1ccccn1	HCC-2998 colon	GI50	13.1 µM
Cc1nc2ccc(NC(=O)CCNC(=O)CCCc3ccc(CC(C(=O)O)C(=O)O)cc3)cc2s1	HCC-2998 colon	GI50	> 100 µM
COc1ccc2[nH]c(O)c(/C=c3/cc4c(c(-c5ccc(F)c(OC)c5)n3)=Nc3ccccc3-4)c2c1	HCC-2998 colon	GI50	2.13 µM
O=c1/c(=C\c2ccc(F)cc2)sc2n1C(c1ccc(F)cc1)C1=C(N=2)c2ccc3ccccc3c2OCC1 (stereo not given)	HCC-2998 colon	GI50	> 100 µM
CCN(c1cc(-c2ccc(CN3CCOCC3)cc2)cc(C(=O)NCc2c(C)cc(C)[nH]c2=O)c1C)C1CCOCC1	HCC-2998 colon	GI50	20.4 µM

---

- Tested on: UACC-257 melanoma
- test-summary: NCI tumour cell line growth inhibition, 48 h
# TGI listing for each entry below

compound	TGI
O=P1(S)OC[C@H]2O[C@@H]3[C@H](F)[C@@H]2OP(O)(=S)OC[C@H]2O[C@H]([C@H](F)[C@@H]2O1)n1cnc2c(ncnc21)NC/C=C/CNc1ncnc2c1ncn23 (some centres undefined)	> 100 µM
N#Cc1cc2c(n(C3OC(CO)C(O)C(O)C3O)c1=S)CCCCCC2 (centres undefined)	> 100 µM
CCN(c1cc(-c2ccc(CN3CCOCC3)cc2)cc(C(=O)NCc2c(C)cc(C)[nH]c2=O)c1C)C1CCOCC1	33.5 µM
COc1ccc(OC)c(SC(CC(=O)c2ccccc2)c2ccccc2)c1 (centres undefined)	30.7 µM
COc1ccc(C(O)c2cc3c(N)c(C(=O)Nc4cccc(Cl)c4)sc3nc2C)cc1 (centres undefined)	81 µM
COC[C@@H](N=Cc1ccc([N+](=O)[O-])cc1)C(C)C	> 100 µM
CC(C)(C)C(=CS(=O)/N=C/c1ccccc1)C(C)(C)C (centres undefined)	> 100 µM
Cn1c(=O)oc2nc(-c3ccccc3)cc(C(F)(F)F)c21	> 100 µM
CN1C(=O)C(O)C[C@@H]1c1ccccc1 (some centres undefined)	> 100 µM

---

- Test system: RPMI-8226 leukemia
- test-summary: NCI tumour cell line growth inhibition, 48 h
# TGI listing for each entry below

compound	result-modifier	TGI, µM
Cc1cc2c([nH]c3ccccc32)c(O)c1-c1c(C)cc2c([nH]c3ccccc32)c1O	=	18.5
O=c1ncccn1C1OC(CO)C(O)C1O (stereo not given)	>	100
O=c1oc(C(C(F)(F)F)C(F)(F)F)nc2ccccc12	>	100
CN1CCc2c1nc(-c1ccc(Cl)cc1)c1c2N(C)CC1	=	37.1
Cc1ccc(S(=O)(=O)c2nc(-c3ccccc3)oc2S(C)=O)cc1 (stereo not given)	=	4.13
COc1cc(C2C3=C(COC3=O)Oc3cc4c(cc32)OCO4)cc(OC)c1O (stereo not given)	>	41.9
O=S(=O)(NCn1ccc2ccccc21)c1ccccc1	=	47.2
CCCCCCCCNCCC[C@@H](C)[C@H]1CC[C@H]2[C@@H]3[C@H](OCCCN)C[C@H]4C[C@H](OCCCN)CC[C@]4(C)[C@H]3C[C@H](OCCCN)[C@]12C	=	3.49
NNC(=O)C(=O)N/N=C1\CCC(=O)CC1C(=O)CCC(=O)Nc1ccc(Cl)cc1 (stereo not given)	>	100
Cc1nc(N)c(N2CCN(CN)CC2)c(=O)[nH]1	>	100

These measurements were taken from PubChem BioAssay (NCI).
